Assay: solubility of each compound in a solvent
Type: physicochemical
Details: Toluene, at 20° C., % on weight
Description: For the six compounds (B) to (H) of Examples 1 to 6 and the compounds (I) and (J) for comparison, the solubility of each compound in a solvent was measured.
ASSAY READOUT: Solubility in Toluene (%)

compound="CC1CN=C(c2ccc3c(c2)C(=O)C(c2nc4ccccc4cc2O)C3=O)O1 (centres unmarked)" obs_value=3.98
compound="CCCCCCCCOC(=O)c1ccc2c(c1)C(=O)C(c1nc3ccc(CCCC)cc3cc1O)C2=O (centres unmarked) [I, reference compound]" obs_value=0.51
compound="CCC1(CO)COC(c2ccc3c(c2)C(=O)C(c2nc4ccc(C(C)C)cc4cc2O)C3=O)=N1 (centres unmarked)" obs_value=4.01
compound="CCC1(COC(=O)C(C)C)COC(c2ccc3c(c2)C(=O)C(c2nc4ccc(C(C)C)cc4cc2O)C3=O)=N1 (centres unmarked)" obs_value=8.85
compound="CCCCOC(=O)c1ccc2c(c1)C(=O)C(c1nc3ccc(C)cc3cc1O)C2=O (centres unmarked) [J, reference compound]" obs_value=0.28
compound="CCCCN(CCCC)C(=O)c1ccc2c(c1)C(=O)C(c1nc3ccc(C(C)C)cc3cc1O)C2=O (centres unmarked)" obs_value=10.52
compound="CC(C)c1nnc(-c2ccc3c(c2)C(=O)C(c2nc4ccccc4cc2O)C3=O)o1 (centres unmarked)" obs_value=4.22
compound=CC(C)c1ccc2nc(C3C(=O)c4ccccc4C3=O)c(O)cc2c1 obs_value=1.79

====

Experiment: maximum absorption wavelength
Type: physicochemical
Conditions: in toluene
# key: entry, value: maximum absorption wavelength in toluene
ASSAY READOUT: maximum absorption wavelength in toluene (nm)

compound="CC(C)c1ccc2nc(C3C(=O)c4ccccc4C3=O)c(O)cc2c1 [D]" scale_unit=nm obs_value=450
compound="CCCCN(CCCC)C(=O)c1ccc2c(c1)C(=O)C(c1nc3ccc(C(C)C)cc3cc1O)C2=O (stereo not drawn) [F]" scale_unit=nm obs_value=450
compound="CC(C)c1nnc(-c2ccc3c(c2)C(=O)C(c2nc4ccccc4cc2O)C3=O)o1 (stereo not drawn) [C]" scale_unit=nm obs_value=450
compound="CC1CN=C(c2ccc3c(c2)C(=O)C(c2nc4ccccc4cc2O)C3=O)O1 (stereo not drawn) [B]" scale_unit=nm obs_value=448
compound="CCC1(CO)COC(c2ccc3c(c2)C(=O)C(c2nc4ccc(C(C)C)cc4cc2O)C3=O)=N1 (stereo not drawn) [G]" scale_unit=nm obs_value=450
compound="CCC1(COC(=O)C(C)C)COC(c2ccc3c(c2)C(=O)C(c2nc4ccc(C(C)C)cc4cc2O)C3=O)=N1 (stereo not drawn) [H]" scale_unit=nm obs_value=450

====

Test: solubility of each compound in a solvent
Format: physicochemical
Details: DMF, at 20° C., % on weight
Procedure: For the six compounds (B) to (H) of Examples 1 to 6 and the compounds (I) and (J) for comparison, the solubility of each compound in a solvent was measured.
Below, each entry is listed with its recorded Solubility in DMF.
ASSAY READOUT: Solubility in DMF (%)

compound="CCC1(COC(=O)C(C)C)COC(c2ccc3c(c2)C(=O)C(c2nc4ccc(C(C)C)cc4cc2O)C3=O)=N1 (centres unmarked) [H]" assay_readout="Solubility in DMF" obs_value=12.64
compound="CCCCN(CCCC)C(=O)c1ccc2c(c1)C(=O)C(c1nc3ccc(C(C)C)cc3cc1O)C2=O (centres unmarked) [F]" assay_readout="Solubility in DMF" obs_value=13.49
compound="CC1CN=C(c2ccc3c(c2)C(=O)C(c2nc4ccccc4cc2O)C3=O)O1 (centres unmarked) [B]" assay_readout="Solubility in DMF" obs_value=6.91
compound="CC(C)c1nnc(-c2ccc3c(c2)C(=O)C(c2nc4ccccc4cc2O)C3=O)o1 (centres unmarked) [C]" assay_readout="Solubility in DMF" obs_value=7.03
compound="CC(C)c1ccc2nc(C3C(=O)c4ccccc4C3=O)c(O)cc2c1 [D]" assay_readout="Solubility in DMF" obs_value=3.56
compound="CCC1(CO)COC(c2ccc3c(c2)C(=O)C(c2nc4ccc(C(C)C)cc4cc2O)C3=O)=N1 (centres unmarked) [G]" assay_readout="Solubility in DMF" obs_value=6.91
compound="CCCCOC(=O)c1ccc2c(c1)C(=O)C(c1nc3ccc(C)cc3cc1O)C2=O (centres unmarked) [J, reference compound]" assay_readout="Solubility in DMF" obs_value=0.78
compound="CCCCCCCCOC(=O)c1ccc2c(c1)C(=O)C(c1nc3ccc(CCCC)cc3cc1O)C2=O (centres unmarked) [I, reference compound]" assay_readout="Solubility in DMF" obs_value=1.20

====

Test: solubility of each compound in a solvent
Assay type: physicochemical
Settings: THF, at 20° C., % on weight
ASSAY READOUT: Solubility in THF (%)

compound="CC(C)c1nnc(-c2ccc3c(c2)C(=O)C(c2nc4ccccc4cc2O)C3=O)o1 (stereo not shown) [C]" obs_value=6.55
compound="CCC1(COC(=O)C(C)C)COC(c2ccc3c(c2)C(=O)C(c2nc4ccc(C(C)C)cc4cc2O)C3=O)=N1 (stereo not shown) [H]" obs_value=10.38
compound="CC1CN=C(c2ccc3c(c2)C(=O)C(c2nc4ccccc4cc2O)C3=O)O1 (stereo not shown) [B]" obs_value=6.50
compound="CCCCOC(=O)c1ccc2c(c1)C(=O)C(c1nc3ccc(C)cc3cc1O)C2=O (stereo not shown) [J, reference compound]" obs_value=0.34

The origin of these recorded values is patent US5359075A.
